Target: Arginase-1 (Rattus norvegicus, UniProt P07824)
Sequence (P07824 whole entry): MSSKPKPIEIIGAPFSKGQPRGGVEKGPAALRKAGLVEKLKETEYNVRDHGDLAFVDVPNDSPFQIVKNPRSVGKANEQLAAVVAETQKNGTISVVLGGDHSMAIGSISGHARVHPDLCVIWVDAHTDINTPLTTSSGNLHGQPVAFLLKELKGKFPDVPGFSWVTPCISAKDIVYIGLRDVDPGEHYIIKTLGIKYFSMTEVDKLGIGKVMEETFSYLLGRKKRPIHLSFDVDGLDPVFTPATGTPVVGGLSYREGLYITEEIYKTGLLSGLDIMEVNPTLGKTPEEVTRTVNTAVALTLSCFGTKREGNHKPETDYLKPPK
Test: Inhibition of recombinant rat liver arginase expressed without histidine tail assessed as urea formation using L-arginine as substrate after 15 mins by Berthelot assay
For each entry below, report its IC50 value.
Your answer should be a number followed by the unit of measure.

For the compound O=c1c(O)c(-c2ccc(O)c(O)c2)oc2cc(O)ccc12 [FISETIN] , give its reported IC50.
1.4 µM

Output measured IC50 for this item: O=c1cc(-c2ccc(O)c(O)c2)oc2cc(O)cc(O)c12 [LUTEOLIN]
9 µM

* * *

Experiment: Cytotoxicity against HEK293T cells
Type: cell-based
Details: Homo sapiens, HEK-293T
Recorded Metric: pIC50
As a rule, pIC50 stands for the negative log10 of the concentration, concentration in M.

In one line, give reported pIC50 of the entry COc1cc(/C=C/C(=O)CC(=O)/C=C/c2ccc(O)c(OC)c2)ccc1O [CURCUMIN] .
4.82
